Protocol summary: calorie-restriction mimetic ROS inhibitors, yeast – validation compound set, pilot screen (AID 2706);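 note: yeast exposed to compound for one week at 30 degrees C before staining; 100% = mean of all compound wells on the same plate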
Conditions used: S. cerevisiae aging, superoxide DHE fluorescence; at 10 µM; active compounds read low
Parameter: superoxide response (% of plate) (%)
Give bare numbers, in %.

Observe how each entry below is paired with its result.
CCOc1ccc2[nH]c3c(=O)n(CCc4ccc(OC)cc4)cnc3c2c1    99.7
O=C(O)/C=C/c1cnc[nH]1    98.6
Cc1cc(C)nc(NS(=O)(=O)c2ccc(N)cc2)n1    95.6
O=C1C(=O)N2C(=C1C(=O)N1CCCCCC1)c1ccccc1CC21CCCC1    115
COc1ccccc1OCC(=O)O    106
COc1ccc(NC(=S)N2CCN(CCN3C(=O)c4cccc5cccc(c45)C3=O)CC2)cc1    86.5
CCCNCC(O)COc1ccccc1C(=O)CCc1ccccc1 (stereo unspecified)    98.6
CCOc1ccc(C(NC(C)=O)c2ccc(OC)c(OC)c2)cc1 (stereo unspecified)    107

Lab note: each compound below needs its superoxide response (% of plate) filled in.
1. CCCCCCCC(=O)OCC(=O)[C@@]1(O)CC[C@H]2[C@@H]3CCC4=CC(=O)CC[C@]4(C)[C@H]3[C@@H](O)C[C@@]21C
2. CCc1c(C(C)=O)oc2ccc3c(C)cc(=O)oc3c12
3. COc1ccccc1CCn1cnc2c3cc(C)ccc3n(C)c2c1=O

Found:
1: 108; 2: 92.5; 3: 94.8

###

Protocol summary: Nile Red efflux blockade in pump-expressing yeast – validation compound set, multiplex, phenotypic, pilot screen (AID 588506);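 note: Nile Red retained in cells so higher fluorescence means more efflux inhibition; 0 = negative control wells and 1 = enniatin B 25 µM full block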
Conditions used: S. cerevisiae pump-expressing triplex, Nile Red efflux flow cytometry; at 10 µM; the pumps come from Candida albicans
Active and inactive are the calls of the source.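 The calls were made as follows: active = efflux inhibition above 0.42, the validation set average plus 4 SD; inconclusive = no clear call, values can overlap the other calls; inactive = the rest.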
Outcomes you can answer with include only these: 1 = active, 0 = inactive

For orientation, consider the following solved cases.
CC(C)CC1c2[nH]c3ccccc3c2CCN1C(=O)CCC(=O)N(C)C (centres undefined)    0
COc1cccc(/C=C/C(=O)c2c(O)cc(C)oc2=O)c1O    0

Lookup: Answer briefly: the call reported for COc1ccc(CCN(C)CCCC(C#N)(c2cc(OC)c(OC)c(OC)c2)C(C)C)cc1OC (centres undefined) in this assay.
Found: 0

Lookup: What was the test verdict on O=C1[C@@H]2CSCN2C(=O)CN1Cc1ccc(F)cc1 ?
Found: 0

Lookup: // outcome(item) with item = O=c1[nH]cnc2[nH]ncc12
Found: 0

Lookup: Write down the call the test reported for this compound. Item: NC(=O)c1ccccc1O
Found: 1

Lookup: // param item: C[N+](C)(C)CCCC(=O)c1ccc2c(c1)OCO2 ; yields the recorded call
Found: 0

###

Experimental system: Integrin beta-1 (Homo sapiens) + Integrin alpha-4 (Homo sapiens) (UniProt P13612+P05556)
Sequence (P05556 whole entry, looked up): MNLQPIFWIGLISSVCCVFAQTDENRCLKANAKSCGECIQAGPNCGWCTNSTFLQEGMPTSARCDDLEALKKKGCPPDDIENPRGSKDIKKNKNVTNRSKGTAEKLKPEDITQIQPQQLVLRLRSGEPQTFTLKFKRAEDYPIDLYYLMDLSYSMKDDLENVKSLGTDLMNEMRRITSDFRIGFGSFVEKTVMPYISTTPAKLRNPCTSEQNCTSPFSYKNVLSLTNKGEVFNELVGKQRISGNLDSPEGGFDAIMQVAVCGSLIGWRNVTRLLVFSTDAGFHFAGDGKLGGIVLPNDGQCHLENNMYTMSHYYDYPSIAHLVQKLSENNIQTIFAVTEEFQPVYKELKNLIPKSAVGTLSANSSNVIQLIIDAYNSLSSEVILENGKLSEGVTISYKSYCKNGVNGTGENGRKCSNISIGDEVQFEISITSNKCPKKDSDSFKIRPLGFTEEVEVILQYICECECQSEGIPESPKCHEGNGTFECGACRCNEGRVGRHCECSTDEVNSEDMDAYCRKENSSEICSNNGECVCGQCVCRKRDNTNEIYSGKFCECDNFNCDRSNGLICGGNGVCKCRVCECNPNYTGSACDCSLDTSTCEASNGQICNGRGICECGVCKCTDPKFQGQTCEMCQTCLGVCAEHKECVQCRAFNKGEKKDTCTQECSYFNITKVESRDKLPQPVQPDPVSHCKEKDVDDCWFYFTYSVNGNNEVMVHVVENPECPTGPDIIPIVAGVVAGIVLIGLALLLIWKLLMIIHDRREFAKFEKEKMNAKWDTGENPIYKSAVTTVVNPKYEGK
Sequence (P13612 whole entry, looked up): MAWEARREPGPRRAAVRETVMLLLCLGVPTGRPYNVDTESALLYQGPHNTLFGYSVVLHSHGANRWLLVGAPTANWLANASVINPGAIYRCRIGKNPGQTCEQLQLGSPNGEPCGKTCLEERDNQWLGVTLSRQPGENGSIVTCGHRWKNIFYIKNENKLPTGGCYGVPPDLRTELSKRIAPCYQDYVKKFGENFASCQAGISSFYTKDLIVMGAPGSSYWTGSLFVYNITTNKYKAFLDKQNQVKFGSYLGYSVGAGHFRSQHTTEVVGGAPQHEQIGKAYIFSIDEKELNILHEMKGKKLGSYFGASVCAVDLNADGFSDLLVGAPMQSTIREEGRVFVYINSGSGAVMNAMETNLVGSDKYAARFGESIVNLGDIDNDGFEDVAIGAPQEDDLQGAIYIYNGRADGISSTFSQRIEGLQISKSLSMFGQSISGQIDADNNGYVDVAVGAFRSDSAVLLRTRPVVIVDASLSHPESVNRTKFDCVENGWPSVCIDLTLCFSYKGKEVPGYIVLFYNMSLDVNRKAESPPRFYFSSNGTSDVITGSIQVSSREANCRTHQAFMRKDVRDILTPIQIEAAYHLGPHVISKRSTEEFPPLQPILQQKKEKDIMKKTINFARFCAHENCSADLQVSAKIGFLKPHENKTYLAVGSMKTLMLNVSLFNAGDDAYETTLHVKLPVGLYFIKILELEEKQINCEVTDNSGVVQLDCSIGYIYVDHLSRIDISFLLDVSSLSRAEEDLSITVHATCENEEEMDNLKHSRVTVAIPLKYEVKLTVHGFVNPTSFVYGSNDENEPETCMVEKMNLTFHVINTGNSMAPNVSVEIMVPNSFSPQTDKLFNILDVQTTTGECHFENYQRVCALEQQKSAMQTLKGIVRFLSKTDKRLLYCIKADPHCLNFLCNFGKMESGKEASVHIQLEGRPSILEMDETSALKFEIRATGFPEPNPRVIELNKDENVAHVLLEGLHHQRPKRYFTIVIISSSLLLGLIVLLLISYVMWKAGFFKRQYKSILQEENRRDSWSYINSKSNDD
Protocol summary: alpha4beta1 integrin LIBS antibody binding reduction – U937 cells, HUTS-21 mAb, flow cytometry, validation set, VLA-4 allosteric modulator project, pilot screen (AID 2674);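 note: antibody binding induced by the VLA-4 ligand LDV present at three times its Kd; 0% = LDV ligand with antibody and no compound and 100% = antibody without LDV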
Conditions used: HUTS-21 LIBS mAb binding, at 6.7 µM, binding induced by LDV ligand
Active and inactive are the calls of the source.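 Rule for the calls: active = inhibition above 50%, about 3 SD of the validation set; inactive = the rest.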
Allowed answers: 1 (active), 0 (inactive)

CCn1cc(CN2N=C(C)CC2c2ccccc2)c(C)n1 (centres undefined)    0
Cc1cc(C(=O)Nc2ccccc2C(=O)N2CCCCC2)ccc1[N+](=O)[O-]    0
OCC1CCN(Cc2cn(Cc3ccccc3)nc2-c2cc3ccccc3o2)CC1    0
CC(=O)N(C(C)=O)c1nc2nc(C)cc(C)n2n1    0
CCC(=O)c1ccc(OCc2ccc(C(=O)OC)cc2)cc1    0

Lookup: For this molecule, state the assay outcome: OCCC1CN(Cc2ccccc2-c2ccco2)CCN1C1CCCC1 (centres undefined)
Found: 0

Lookup: Record lookup: outcome of this test for Cc1ccc2c(ccc(=S)n2C)c1 ?
Found: 0

Lookup: For Cc1ccsc1C1NC(=O)c2ccccc2N1 (centres undefined) , what call appears in the results of this test?
Found: 0

Lookup: What did this assay record as the result for CCOC(=O)C1(Cc2cccc(Cl)c2)CCCN(C2CCN(C(C)=O)CC2)C1 (centres undefined) ?
Found: 0

Lookup: Could you kindly confirm the outcome this assay logged for COc1ccc2c(c1)[N+](C)(C)C(C)(C)C=C2C ?
Found: 0
